These data points were gathered from PubChem BioAssay (NCI).

Hi there, I'd appreciate the recorded TGI for every entry that follows.
# Test system: EKVX NSCLC
# Assay Info: NCI tumour cell line growth inhibition, 48 h

Query (compound): CC/C(Cl)=N\OC(=O)Nc1ccc(OC)c(C)c1 ; field requested: TGI
10.1 µM

And what about the compound COc1ccc(C2C(C#N)=C(N)Oc3c2sc2c(Br)cccc32)cc1 (stereo not drawn) ?
21 µM

Could you do the same for COC(=O)CN1C(=O)C2(C(=O)OC)OC1(c1ccc([N+](=O)[O-])cc1)C1C(=O)N(c3ccccc3)C(=O)C12 (stereo not drawn) , please?
> 100 µM

What do you get for Cc1ccc(S(=O)(=O)N/N=C2\CCCCCCCCCCC2CN(C)C)cc1 (stereo not drawn) ?
70 µM

Moving on to OCCCCn1cc(Cn2ncc3c(NCc4ccccc4)ncnc32)nn1
> 100 µM

Let us now turn to [N-]=[N+]=NCCCn1c2c(c3ccc([N+](=O)[O-])cc3c1=O)C(=O)c1cc(-c3ccccc3)ccc1-2
> 100 µM

How about this compound: CCCCOc1ccc(/C=N/Nc2cc(C)nc3ccc(Br)cc23)cc1
3.03 µM

Same question for NC(Cc1c[nH]c2ccc([N+](=O)[O-])cc12)C(=O)O (stereo not drawn) please.
> 100 µM

Request: C1CSCCSCSCCS1
> 100 µM

Request: Cc1c2ccncc2c(C)c2c1[nH]c1ccc(Oc3ccccc3)cc12
> 100 µM

Proceed to CC(=O)Nc1cc2cc(NS(=O)(=O)c3ccc(Cl)c(Cl)c3)ccc2oc1=O
> 100 µM

And the next one, O=[N+]([O-])c1cc(N=Nc2c(O)ccc3cc(S(=O)(=O)O)ccc23)c(O)c([N+](=O)[O-])c1 ?
> 100 µM

Record: S=C(N/N=C/c1ccccn1)N1CC2CCC(CC2)C1
7.05 µM

Proceed to C/C=C/C(=O)[O-].C/C=C/C(=O)[O-].N.N.N.N.[Co+3].[O-][Cl+3]([O-])([O-])[O-]
> 100 µM

Now the same for CO[C@@]12C[C@@H](C)[C@]34O[C@H]3C[C@]3(C)O[C@]43CC1=C(C)C(=O)O2
> 100 µM

Could you do the same for Cc1nc2cc3ccccc3cc2[nH]c1=O , please?
> 100 µM

Now consider CC(C)(C)OC(=O)[C@@H]1ON2O[C@H](OC3CCCC3(c3ccccc3)c3ccccc3)C[C@H]3OC(=O)[C@@H]1[C@H]32 (stereo partly drawn) and answer again.
> 100 µM

Continue with Nc1cc2ncnn2c(SCC(=O)N/N=C/C(Br)=C\c2ccccc2)n1
> 100 µM

Would you kindly repeat that for CC(=O)NNc1nc(C)c(C(=O)NNC(=O)C(=O)Nc2c([N+](=O)[O-])ccc(C)c2C)s1 ?
> 100 µM

Moving on to C=CCOCn1cc(F)c(=O)[nH]c1=O
> 100 µM

Let us now turn to Oc1ccc(C(O)(c2ccccc2)c2ccccc2)c2ccccc12
26.4 µM

Cool, now Cc1cc(S(=O)(=O)Nc2nnc3ccccn23)c(S)cc1Cl
> 100 µM

Can you check COc1ccc2c(c1)CCc1cc(OC)ccc1/[N+]([O-])=[N+]\2[O-] next?
42.5 µM

Same question for CCC/C(Cl)=N/OC(NC(=O)OCC)(C(F)(F)F)C(F)(F)F please.
45 µM

What would you report for CC(C)(C)[C@H]1CO[C@]2(c3ccccc3)[C@@H]3C[C@@H]3C(=O)N12 ?
> 100 µM

Next up: CC(C)OC/N=C(/N)NC#N
> 100 µM

CCOC(=O)CSC1NC(C(=O)OC)CC1OC (stereo not drawn) ?
> 100 µM

Field entry: COc1cc2c(c(OC)c1OC)-c1ccc(SC)c(=O)cc1[C@@H](NC(=O)C(F)(F)F)CC2
> 100 µM

* * *

# Tested on: COLO 205 colon
# Assay Info: NCI tumour cell line growth inhibition, 48 h; in the data active = GI50 below about 0.43 µM; inactive = the rest
Use one of these outcomes when replying: active, inactive

Short answer needed: outcome of this test for O=C(Nc1cc(Cl)ccc1O)c1ccccc1Nc1ccnc(C(F)(F)F)c1 ?
inactive

Follow-up entry: Cc1ccc(Cl)c(NS(=O)(=O)c2ccc(-c3cnc(C4CC4)o3)cc2)c1
active

Field entry: OC1CCCC2CCC[N-]C12.OC1CCCC2CCC[N-]C12.[O]=[V][OH] (configuration not stated)
inactive

Param item: COc1ccc2c(c1)/C(=C\c1c(-c3cc(OC)ccc3OC)nc3sccn13)C(=O)N2
inactive

Likewise for O=C(/C=C/c1ccccn1)c1ccc(OCc2nnc(-c3ccc(Cl)cc3)o2)cc1 ?
inactive

And then CCN(CC)c1ccc(-c2cc(-c3cc(OC)c(OC)c(OC)c3)nc(N3CCC(O)CC3)c2C#N)cc1 , what is it?
inactive

Then Oc1[nH]c2ccccc2c1/C=c1/ccc2c(c1)N=C(c1ccc(C(F)(F)F)cc1)N=2 ?
inactive

* * *

Could you please report measured GI50 for the items listed next?
# System: MDA-MB-231 breast
# Assay Info: NCI tumour cell line growth inhibition, 48 h

Param item = Fc1ccc(-c2nn3ccccc3c2-c2ccncc2)cc1 ; retrieve measured GI50.
> 25 µM

Same question, COc1ccc(-c2cc(-c3ccc(Cl)cc3)nc(NCCCCNc3ccnc4cc(Cl)ccc34)n2)cc1 this time
1.72 µM

Try this compound too: Cn1cc(C2=C(c3cn(CCCN)c4ccccc34)C(=O)NC2=O)c2ccccc21
6.49 µM

Ok, now CCN(CC)CCN1c2nc3ccccc3cc2Sc2cc3ccccc3nc21
1.58 µM

Item: COc1ccc(C2C(C#N)=C(N)Oc3c2sc2c(Br)cccc32)cc1 (stereo not given)
2.78 µM

* * *

# Tested on: MDA-MB-435
# Assay Info: NCI tumour cell line growth inhibition, 48 h
Observed Property: log10 of TGI (log10 of the value in µM)
A difference of one corresponds to tenfold TGI; all values are log10 with TGI in µM.

Can you share its log10 of TGI? I mean this compound: O=C(c1ccc([N+](=O)[O-])cc1)C(Br)C(Br)c1ccnc2ccccc12 (stereo not drawn)
0.89

Note, next up: C#C[C@@]1(O)[C@@H](CO)O[C@@H](n2cc(C(F)(F)F)c3c(N)ncnc32)[C@@H]1O
1.05

Next up: N=C(N)c1ccc(-c2ccc(-c3ccc4ccccc4c3)s2)s1
0.61

Also, CCC(C)C1=C(O)[N+]2([O-])Oc3ccc(C4=C(O)C(=O)C(c5ccc(O)cc5)=C(O)C4=O)cc3OC2(C(C)CC)C(=O)N1O (stereo not drawn) please.
1.96

And O=C(/C=C/c1ccccn1)c1ccc(OCc2nnc(-c3ccc(Cl)cc3)o2)cc1 ?
0.56

* * *

# Test system: A498 renal
# Assay Info: NCI tumour cell line growth inhibition, 48 h
Where a SMILES comes first, the peptide text is derived from it. The star is where a group is joined. Cbz = O=C(OCc1ccccc1)*; Bn = c1ccc(C*)cc1
Binning rule for recorded TGI: low-valued = under 10 µM, mid-valued = from 10 µM up to 30 µM, high-valued = 30 µM and over

Which category fits this record: Cc1cn(Cc2cccc(C3=NCCCN3)c2)c(=O)n(Cc2cccc(C3=NCCCN3)c2)c1=O
high-valued

Please give the result for COC(=O)c1cc(O)c(O)c(O)c1-c1c(O)c(O)c(O)c(SC[C@H](NC(=O)OCc2ccccc2)C(=O)OCc2ccccc2)c1C(=O)OC too.
high-valued

Cool, now COc1c(C(C)(C)C)cc(CC2C(=O)C=CC2=O)cc1C(C)(C)C
high-valued

Also C1CSCCSCSCCS1 , if possible.
high-valued

Repeat for the following compound: CCOc1ccc(C(C[N+](=O)[O-])Sc2ccccc2N)cc1 (centres undefined)
mid-valued

Same question, COc1ccc(S(=O)(=O)Nc2c(/C=C\c3cc(OC)c(OC)c(OC)c3)ccc(OC)c2O)cc1 this time
low-valued

What would you report for c1ccc2c(c1)c1c3c(c4c(n32)=NCCN4)CCC1 ?
high-valued

Lookup O=[N+]([O-])c1ccc2sc(/C=N/c3ccccn3)cc2c1
high-valued

Next record, please: NC(Cc1c[nH]c2ccc([N+](=O)[O-])cc12)C(=O)O (centres undefined)
high-valued

Same question, Cc1cc(S(=O)(=O)Nc2nnc3ccccn23)c(S)cc1Cl this time
high-valued

Queued: Nc1cccc(OCC2CCCN3CCCCC23)c1 (centres undefined)
mid-valued

Param item: COc1ccc(OC)c(/C=C2\CCc3ccccc3C2=O)c1
mid-valued

Queued: Nc1ncc(-c2ccc3ncnc(N4CCc5ccc(Cl)cc54)c3c2)cc1C(F)(F)F
low-valued

Same again, this time with C=C1C(=O)O[C@H]2[C@H]1CC/C(COC(=O)/C=C\C(=O)NCc1ccc(Cn3c(=O)sn(CCI)c3=O)cc1)=C\CC[C@@]1(C)O[C@@H]21
mid-valued

// same read-out, input: CCOC(=O)NN(C(=O)OCC)C(=C(C1=CCCCC1)N1CCOCC1)N(NC(=O)OCC)C(=O)OCC
high-valued

Same question, Cc1ccc(/C=C/C(=O)c2sc(-n3nc(-c4ccccc4)cc3-c3ccccc3)nc2C)cc1 this time
high-valued

Repeat with COc1ccc(-c2csc(Cc3nc4c(Br)cc(Br)cc4c(=O)n3-c3ccc(OC)cc3)n2)cc1
high-valued

And the next one, COC(=O)C(Cc1ccc(O)cc1)NC(=O)C(COCc1ccccc1)NC(=O)OCc1ccccc1 (centres undefined) (Cbz-Ser(Bn)-Tyr-OMe; configuration not given here) ?
high-valued

What would you report for CN(C)C(=S)C(Cl)(c1ccccc1)c1ccccc1 ?
high-valued

Another compound to look at: ClCC[N-]CC[N-]CCCl.ClCC[N-]CC[N-]CCCl.[O-][Cl+3]([O-])([O-])O.[Zn+2]
high-valued

Also need O=C(NCCOCCOCCOCCNC(=O)c1cc2c(o1)C(=O)c1ccccc1C2=O)NC12CC3CC(CC(C3)C1)C2 , thanks.
low-valued

Next up: N=C(N)c1ccc(-c2ccc(-c3ccc4ccccc4c3)s2)s1
mid-valued

// query: O=C(c1ccc([N+](=O)[O-])cc1)C(Br)C(Br)c1ccnc2ccccc12 (centres undefined)
mid-valued

Again, but for CCOC(=O)c1c(N2CCCC2)[nH]c(=O)c(C(c2ccc(Cl)c([N+](=O)[O-])c2)c2c(O)c(C(=O)OCC)c(N3CCCC3)[nH]c2=O)c1O
high-valued

Moving on to CC(=O)Oc1c2ccsc2c(OC(C)=O)c2ccsc12
low-valued

// repeat for O=C(Nc1cc(Cl)ccc1O)c1ccccc1Nc1ccnc(C(F)(F)F)c1 and report
low-valued

Another compound to check: COC(=O)CN1C(=O)C2(C(=O)OC)OC1(c1ccc([N+](=O)[O-])cc1)C1C(=O)N(c3ccccc3)C(=O)C12 (centres undefined)
high-valued

What about this compound? CCCCCCCCCCNCCSS(=O)(=O)O
mid-valued

Lookup COc1ccc(C2C(C#N)=C(N)Oc3c2sc2c(Br)cccc32)cc1 (centres undefined)
mid-valued

Note, next up: CN(C)c1ccc(/C=N/c2nc3cc4sc(/N=C/c5ccc(N(C)C)cc5)nc4cc3s2)cc1
high-valued

// same read-out, input: CSc1ccc(NC(=O)C2c3[nH]c4ccccc4c3C3CCC(C(C)(C)C)CC3C2C(=O)O)cc1 (centres undefined)
high-valued

What would you report for O=C(Nc1ccc(Cl)cc1C(=O)O)c1ccc([N+](=O)[O-])cc1 ?
mid-valued

Also CCN1C(=O)N(CC)C2C1NN=c1s/c(=C3\C(=O)N(C4CCCC4)c4ccccc43)c(=O)n12 (centres undefined) , if possible.
low-valued

Check N#CC1(C#N)C=CC(=C2OCC3CCCN23)C=C1 (centres undefined) too.
high-valued

Same again, this time with CC(=O)c1ccccc1NC(=O)C(=O)C(C(=O)c1ccccc1-c1ccccc1)C1OC(=O)c2ccccc21 (centres undefined)
high-valued

Another compound: CCn1c(=O)c(C(=O)O)c(Cl)c2cc3c(cc21)OCO3
high-valued
